Measured values drawn from paper PMC8427794 for this set.

- method_description: Brain and plasma kinetics in rat after a single dose
- Type: in vivo, male Sprague Dawley rat
- measurement_parameters: male, Sprague Dawley, brain, sc, 10 mg/kg
readout_label: concentration at 4 h (ng/g)
Numbers only, in ng/g.

Prompt: Form field: reported concentration at 4 h of CCCCn1ccn2c(-c3ccc(OCC4CC4)c(Cl)c3)c(C)nc2c1=O
Completion: 835

====

- measured_on: mGlu7 (Homo sapiens)
- Sequence (Q14831 35-915): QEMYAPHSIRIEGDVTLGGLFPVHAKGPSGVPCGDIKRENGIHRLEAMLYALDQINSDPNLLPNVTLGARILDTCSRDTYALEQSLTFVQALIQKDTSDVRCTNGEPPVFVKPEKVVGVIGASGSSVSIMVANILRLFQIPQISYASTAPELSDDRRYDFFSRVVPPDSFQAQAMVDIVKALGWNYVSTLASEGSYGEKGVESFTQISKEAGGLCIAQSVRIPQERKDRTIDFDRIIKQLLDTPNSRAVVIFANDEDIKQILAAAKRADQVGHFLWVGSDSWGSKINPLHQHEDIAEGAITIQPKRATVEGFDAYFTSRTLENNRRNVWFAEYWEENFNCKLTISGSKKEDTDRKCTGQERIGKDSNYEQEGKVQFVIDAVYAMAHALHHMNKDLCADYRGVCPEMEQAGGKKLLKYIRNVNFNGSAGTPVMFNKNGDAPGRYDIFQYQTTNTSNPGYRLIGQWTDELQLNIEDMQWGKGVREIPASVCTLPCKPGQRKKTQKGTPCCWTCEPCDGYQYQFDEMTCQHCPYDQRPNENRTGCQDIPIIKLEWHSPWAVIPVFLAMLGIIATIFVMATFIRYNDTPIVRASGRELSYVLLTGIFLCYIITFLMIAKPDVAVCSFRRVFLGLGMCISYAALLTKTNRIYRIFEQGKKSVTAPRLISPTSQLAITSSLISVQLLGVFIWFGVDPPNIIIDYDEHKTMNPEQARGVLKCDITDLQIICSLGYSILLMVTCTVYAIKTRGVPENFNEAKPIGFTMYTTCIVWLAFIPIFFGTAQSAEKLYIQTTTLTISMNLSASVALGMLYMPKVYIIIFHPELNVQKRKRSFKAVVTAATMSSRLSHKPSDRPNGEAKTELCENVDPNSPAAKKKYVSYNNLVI
- method_description: Selectivity panel, mGlu7 Ca2+ assay
- Type: cell-based
readout_label: EC50

Prompt: I'd like to know its EC50. The compound in question is CCCCn1ccn2c(-c3ccc(OCC4CC4)c(Cl)c3)c(C)nc2c1=O [Compound 3e]
Completion: > 25 µM

====

I'd appreciate it if you could supply HLM (%), percentage of compound metabolized values for the items below.
- method_description: Human liver microsomal stability
- Type: in vitro ADME
- measurement_parameters: incubation with microsomes for 15 min at 5 μM
Give bare numbers, in %.

Some compounds with known HLM (%), percentage of compound metabolized results, for comparison:
> print(dat)
                         compound.structure  result.units  result.value
1  CCCCn1ccn2c(CN3CCC(c4ccccc4)CC3)c(C)nc2c1=O             %            20
2  CCCCn1ccn2c(-c3ccc(Oc4ccc(C)nc4C)c(F)c3)c(C)nc2c1=O             %            24

// moving on: another record for HLM (%), percentage of compound metabolized
Prompt: Name the reported HLM (%), percentage of compound metabolized value associated with the compound CCCCn1cnc2c(-c3ccc(OCC4CC4)c(Cl)c3)c(C)nn2c1=O
Completion: 0

====

- measured_on: mGlu5 (Homo sapiens, UniProt P41594)
- method_description: Selectivity panel, mGlu5 Ca2+ assay
readout_label: IC50

Prompt: Bench note: what IC50 did CCCCn1ccn2c(-c3ccc(OCC4CC4)c(Cl)c3)c(C)nc2c1=O show?
Completion: > 30 µM

====

- measured_on: mGlu3 (Homo sapiens)
- method_description: Selectivity panel, mGlu3 Ca2+ assay
- Format: cell-based
- measurement_parameters: mGlu3 PAM EC50, Ca2+ read-out
readout_label: pEC50
Answers are plain numbers, as −log10 of the molar value.

Prompt: Any idea what pEC50 came out for CCCCn1ccn2c(-c3ccc(OCC4CC4)c(Cl)c3)c(C)nc2c1=O [Compound 3e] on mGlu3 (Homo sapiens)?
Completion: 4.84

====

Please provide measured Emax for the entries that follow.
- measured_on: UniProt Q14416
- Sequence (Q14416 19-872): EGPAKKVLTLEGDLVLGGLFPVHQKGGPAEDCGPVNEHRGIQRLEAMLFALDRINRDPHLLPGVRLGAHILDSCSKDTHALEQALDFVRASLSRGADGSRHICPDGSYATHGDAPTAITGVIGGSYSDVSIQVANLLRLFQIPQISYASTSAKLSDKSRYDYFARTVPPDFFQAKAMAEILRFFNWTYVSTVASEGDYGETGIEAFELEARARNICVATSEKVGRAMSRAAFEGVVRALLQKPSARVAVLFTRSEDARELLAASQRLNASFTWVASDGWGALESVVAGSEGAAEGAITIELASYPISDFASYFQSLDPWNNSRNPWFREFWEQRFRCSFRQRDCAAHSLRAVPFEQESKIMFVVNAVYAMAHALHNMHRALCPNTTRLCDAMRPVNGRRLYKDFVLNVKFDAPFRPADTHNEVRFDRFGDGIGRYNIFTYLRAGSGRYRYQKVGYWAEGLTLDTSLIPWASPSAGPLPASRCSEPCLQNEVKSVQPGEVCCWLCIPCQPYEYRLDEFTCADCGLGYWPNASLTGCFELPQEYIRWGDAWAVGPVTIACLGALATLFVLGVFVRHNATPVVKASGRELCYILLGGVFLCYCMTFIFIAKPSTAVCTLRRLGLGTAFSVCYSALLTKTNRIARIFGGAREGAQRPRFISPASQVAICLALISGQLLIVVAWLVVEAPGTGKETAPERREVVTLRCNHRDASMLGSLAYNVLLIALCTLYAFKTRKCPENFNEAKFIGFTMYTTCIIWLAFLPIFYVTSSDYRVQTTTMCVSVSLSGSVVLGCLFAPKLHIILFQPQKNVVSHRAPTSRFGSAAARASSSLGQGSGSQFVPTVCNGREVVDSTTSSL
- method_description: [35S]GTPγS binding assay, agonist mode
- Type: biochemical
- measurement_parameters: read-out: mGlu2 Ago EMAX ±SD
Answers are plain numbers, in %.

Solved entries:
> print(dat)
                         compound.structure     measured.on  readout.label  result.value
1  CCCCn1ccn2c(-c3ccc(NCc4ccc(OC)nc4)cc3)c(C)nc2c1=O  UniProt Q14416           Emax            47
2  CCCCn1ccn2c(-c3ccc(N4CCNCC4)c(Cl)c3)c(C)nc2c1=O  UniProt Q14416           Emax            36
3  CCCCn1ccn2c(-c3ccc(OCC4CC4)c(Cl)c3)nc(C)c2c1=O  UniProt Q14416           Emax            12
4  CCCCn1ccn2c(-c3ccc(Oc4ccc(C)nc4C)c(F)c3)c(C)nc2c1=O  UniProt Q14416           Emax            54
5  CCCCn1ccn2c(-c3ccc4c(ccn4-c4cccnc4)c3)c(C)nc2c1=O  UniProt Q14416           Emax            44

With those in mind, consider the next molecule.
Prompt: Any idea what its Emax is? The molecule is CCCCn1ccn2c(-c3ccc(Oc4ccccc4)cc3)c(C)nc2c1=O
Completion: 48

====

- method_description: Rat liver microsomal stability
- Assay type: in vitro ADME
- measurement_parameters: incubation with microsomes for 15 min at 5 μM
readout_label: RLM (%), percentage of compound metabolized
One number for each entry, in %.

I need RLM (%), percentage of compound metabolized for every entry listed below, if you could help.
1. CCCCn1ccn2c(-c3ccc(OCC4CC4)c(Cl)c3)c(C)nc2c1=O
2. CCCCn1ccn2c(-c3ccc4c(ccn4-c4cccnc4)c3)c(C)nc2c1=O
3. CCCCn1ccn2c(-c3ccc(NCc4ccc(OC)nc4)cc3)c(C)nc2c1=O
4. CCCCn1ccn2c(CN3CCC(c4ccccc4)CC3)c(C)nc2c1=O
5. CCCCn1ccn2c(-c3ccc(OCC4CC4)c(Cl)c3)nc(C)c2c1=O
6. CCCCn1ccn2c(-c3ccc(OCC4CC4)c(Cl)c3)nnc2c1=O

Completion:
1: 49; 2: 47; 3: 36; 4: 58; 5: 74; 6: 45

Prompt: Requested read-out: RLM (%), percentage of compound metabolized. Entry: CCCCn1ncn2c(-c3ccc(OCC4CC4)c(Cl)c3)cnc2c1=O
Completion: 21

====

- measured_on: mGlu3 (Homo sapiens, UniProt Q14832)
- Sequence (Q14832 23-879): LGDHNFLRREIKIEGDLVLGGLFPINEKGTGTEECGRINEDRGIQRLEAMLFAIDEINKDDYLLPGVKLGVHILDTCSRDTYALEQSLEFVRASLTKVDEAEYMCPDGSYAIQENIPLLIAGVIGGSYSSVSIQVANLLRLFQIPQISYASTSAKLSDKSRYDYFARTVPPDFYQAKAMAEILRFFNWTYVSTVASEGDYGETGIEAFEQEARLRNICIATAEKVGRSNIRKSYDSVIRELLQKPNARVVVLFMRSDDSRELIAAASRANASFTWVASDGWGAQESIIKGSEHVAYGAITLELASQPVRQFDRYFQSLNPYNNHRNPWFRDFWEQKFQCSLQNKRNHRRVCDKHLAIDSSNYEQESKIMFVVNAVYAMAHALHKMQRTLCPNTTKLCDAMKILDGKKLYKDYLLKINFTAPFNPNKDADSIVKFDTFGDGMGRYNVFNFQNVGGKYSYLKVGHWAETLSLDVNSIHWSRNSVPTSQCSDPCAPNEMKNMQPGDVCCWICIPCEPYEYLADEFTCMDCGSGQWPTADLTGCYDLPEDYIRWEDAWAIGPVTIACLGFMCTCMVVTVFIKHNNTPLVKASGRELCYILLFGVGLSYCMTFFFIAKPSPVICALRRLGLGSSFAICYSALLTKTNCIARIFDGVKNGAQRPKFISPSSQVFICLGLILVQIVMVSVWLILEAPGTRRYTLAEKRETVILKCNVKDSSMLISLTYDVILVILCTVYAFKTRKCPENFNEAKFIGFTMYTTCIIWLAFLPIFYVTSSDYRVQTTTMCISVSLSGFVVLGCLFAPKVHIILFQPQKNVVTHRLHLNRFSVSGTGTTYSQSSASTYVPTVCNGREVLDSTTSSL
- method_description: Selectivity panel, mGlu3 Ca2+ assay
pIC50: −log10 of the molar value.
readout_label: pIC50

Prompt: Recorded pIC50 for CCCCn1ccn2c(-c3ccc(OCC4CC4)c(Cl)c3)c(C)nc2c1=O [Compound 3e] , please?
Completion: < 4.52

====

- measured_on: mGlu4 (Homo sapiens)
- Sequence (Q14833 33-912): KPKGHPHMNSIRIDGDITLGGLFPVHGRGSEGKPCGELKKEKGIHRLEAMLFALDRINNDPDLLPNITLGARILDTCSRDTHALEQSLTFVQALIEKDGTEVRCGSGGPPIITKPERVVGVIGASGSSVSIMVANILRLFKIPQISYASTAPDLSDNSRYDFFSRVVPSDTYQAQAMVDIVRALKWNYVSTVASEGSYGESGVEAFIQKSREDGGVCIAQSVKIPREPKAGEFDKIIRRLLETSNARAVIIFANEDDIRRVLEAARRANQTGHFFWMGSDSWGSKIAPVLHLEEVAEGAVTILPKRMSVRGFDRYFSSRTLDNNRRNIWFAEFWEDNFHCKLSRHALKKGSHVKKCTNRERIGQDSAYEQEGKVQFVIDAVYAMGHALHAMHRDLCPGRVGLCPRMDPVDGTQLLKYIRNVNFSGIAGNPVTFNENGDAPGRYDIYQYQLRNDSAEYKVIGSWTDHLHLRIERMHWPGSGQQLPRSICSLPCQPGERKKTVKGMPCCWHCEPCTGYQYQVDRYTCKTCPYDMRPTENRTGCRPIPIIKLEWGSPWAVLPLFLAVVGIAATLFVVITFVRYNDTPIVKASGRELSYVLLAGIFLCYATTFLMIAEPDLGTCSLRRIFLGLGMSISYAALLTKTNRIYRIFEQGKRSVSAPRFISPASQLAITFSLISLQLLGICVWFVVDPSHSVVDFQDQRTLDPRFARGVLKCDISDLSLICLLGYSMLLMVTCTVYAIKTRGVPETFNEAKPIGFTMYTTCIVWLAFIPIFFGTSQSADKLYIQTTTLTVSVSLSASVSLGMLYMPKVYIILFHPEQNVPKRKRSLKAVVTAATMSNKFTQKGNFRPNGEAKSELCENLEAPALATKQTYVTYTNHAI
- method_description: Selectivity panel, mGlu4 assay
- Assay type: cell-based
readout_label: EC50

Prompt: Would you kindly share the measured EC50 for CCCCn1ccn2c(-c3ccc(OCC4CC4)c(Cl)c3)c(C)nc2c1=O ?
Completion: > 25 µM

====

- measured_on: mGlu1 (Homo sapiens)
- method_description: Selectivity panel, mGlu1 Ca2+ assay
readout_label: IC50

Prompt: Fill in: IC50 of CCCCn1ccn2c(-c3ccc(OCC4CC4)c(Cl)c3)c(C)nc2c1=O [Compound 3e] is ___
Completion: > 30 µM

====

- method_description: Brain and plasma kinetics in rat after a single dose
- Type: in vivo, male Sprague Dawley rat
- measurement_parameters: male, Sprague Dawley, plasma, sc, 10 mg/kg
readout_label: concentration at 2 h (ng/mL)
Answers are plain numbers, in ng/mL.

Prompt: Using the record for CCCCn1ccn2c(-c3ccc(OCC4CC4)c(Cl)c3)c(C)nc2c1=O , report its concentration at 2 h.
Completion: 1390

====

- measured_on: mGlu8 (Homo sapiens, UniProt O00222)
- Sequence (O00222 34-908): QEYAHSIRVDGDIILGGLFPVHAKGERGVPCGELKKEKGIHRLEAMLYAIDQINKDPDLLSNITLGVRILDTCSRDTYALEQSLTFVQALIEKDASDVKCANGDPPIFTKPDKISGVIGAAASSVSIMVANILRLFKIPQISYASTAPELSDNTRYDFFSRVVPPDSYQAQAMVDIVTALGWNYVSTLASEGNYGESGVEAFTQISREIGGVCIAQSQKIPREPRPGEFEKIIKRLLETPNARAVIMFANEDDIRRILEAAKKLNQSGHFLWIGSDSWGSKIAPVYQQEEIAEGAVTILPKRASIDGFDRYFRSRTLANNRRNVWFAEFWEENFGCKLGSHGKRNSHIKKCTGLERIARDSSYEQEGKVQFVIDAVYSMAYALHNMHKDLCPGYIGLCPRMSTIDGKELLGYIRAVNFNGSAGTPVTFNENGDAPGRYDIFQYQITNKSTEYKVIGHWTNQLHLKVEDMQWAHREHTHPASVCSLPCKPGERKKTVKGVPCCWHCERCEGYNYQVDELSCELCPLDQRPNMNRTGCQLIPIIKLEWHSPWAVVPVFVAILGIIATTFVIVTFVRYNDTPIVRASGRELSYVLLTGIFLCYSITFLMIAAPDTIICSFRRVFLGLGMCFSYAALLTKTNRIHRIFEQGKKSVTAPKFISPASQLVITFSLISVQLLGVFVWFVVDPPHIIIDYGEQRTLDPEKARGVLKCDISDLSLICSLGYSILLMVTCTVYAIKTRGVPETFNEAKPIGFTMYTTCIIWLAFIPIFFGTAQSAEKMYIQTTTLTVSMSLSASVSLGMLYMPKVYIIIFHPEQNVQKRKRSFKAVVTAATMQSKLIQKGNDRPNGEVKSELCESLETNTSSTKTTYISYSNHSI
- method_description: Selectivity panel, mGlu8 Ca2+ assay
- Format: cell-based
- measurement_parameters: read-out: mGlu8 agonism EC50; Ca2+ read-out
pEC50: −log10 of the molar value.
readout_label: pEC50

Prompt: Returns the measured pEC50 for the input compound. Input: CCCCn1ccn2c(-c3ccc(OCC4CC4)c(Cl)c3)c(C)nc2c1=O
Completion: < 4.60

====

- measured_on: UniProtKB Q14831
- method_description: Selectivity panel, mGlu7 Ca2+ assay
- Assay type: cell-based
- measurement_parameters: read-out: mGlu7 agonism EC50; Ca2+ read-out
readout_label: EC50

Prompt: Reported EC50, molecule CCCCn1ccn2c(-c3ccc(OCC4CC4)c(Cl)c3)c(C)nc2c1=O : ____
Completion: > 25 µM

====

- method_description: Brain and plasma kinetics in rat after a single dose
- Type: in vivo, male Sprague Dawley rat
- measurement_parameters: male, Sprague Dawley, brain/plasma, po, 10 mg/kg
readout_label: Kp at 2 h

Prompt: Form field: reported Kp at 2 h of CCCCn1ccn2c(-c3ccc(Oc4ccccc4)cc3)c(C)nc2c1=O
Completion: 0.5

====

- method_description: Brain and plasma kinetics in rat after a single dose
- Assay type: in vivo, male Sprague Dawley rat
- measurement_parameters: male, Sprague Dawley, plasma, sc, 10 mg/kg, pH 3
readout_label: concentration at 1 h (ng/mL)
Numbers only, in ng/mL.

> print(dat)
                         compound.structure  result.value
1  CCCCn1ccn2c(-c3ccc(OCC4CC4)c(Cl)c3)c(C)nc2c1=O          1420

Prompt: Look at this molecule and give its reported concentration at 1 h. CCCCn1ccn2c(-c3ccc(Oc4ccc(C)nc4C)c(F)c3)c(C)nc2c1=O
Completion: 1820

====

- method_description: Brain and plasma kinetics in rat after a single dose
- Type: in vivo, male Sprague Dawley rat
- measurement_parameters: male, Sprague Dawley, brain/plasma, sc, 10 mg/kg
readout_label: Kp at 1 h
Answers are plain numbers.

Prompt: Requested read-out: Kp at 1 h. Entry: CCCCn1ccn2c(-c3ccc(Oc4ccc(C)nc4C)c(F)c3)c(C)nc2c1=O
Completion: 0.2

====

- method_description: Brain and plasma kinetics in rat after a single dose
- Type: in vivo, male Sprague Dawley rat
- measurement_parameters: male, Sprague Dawley, plasma, po, 10 mg/kg
readout_label: concentration at 4 h (ng/mL)
Numbers only, in ng/mL.

Prompt: What does the record list as concentration at 4 h for CCCCn1ccn2c(-c3ccc(Oc4ccccc4)cc3)c(C)nc2c1=O [Compound 3j] ?
Completion: 14
